Entries and their viability, T/C values follow.
- Tested on: 565726-208-R1-J5-PDC complex spheroids, growth inhibition
- methodSummary: Anticancer human tumor 565726-208-R1-J5-PDC patient-derived pancreatic adenocarcinoma cell line growth inhibition [RAS]
- testSettings: second compound 0.003 µM; first compound 0.0316 µM; active compounds read low
Use % as the unit, but write only the number.

[
  {
    "compound": "C=CC(=O)N1CCN(c2nc(OCC3CCCN3C)nc3c(F)c(-c4nc(N)cc(C)c4C(F)(F)F)c(Cl)cc23)C(C)C1 (stereo not given) + CCn1c(-c2cc(N3CCN(C)CC3)cnc2C(C)OC)c2c3cc(ccc31)-c1csc(n1)CC(NC(=O)C1CC1C)C(=O)N1CCCC(N1)C(=O)OCC(C)(C)C2",
    "subjectOfTest": "565726-208-R1-J5-PDC complex spheroids, growth inhibition",
    "viability, T/C / %": 53.3
  },
  {
    "compound": "C=CC(=O)Nc1cc(Nc2nccc(-c3cn(C)c4ccccc34)n2)c(OC)cc1N(C)CCN(C)C + CCn1c(-c2cc(N3CCN(C)CC3)cnc2C(C)OC)c2c3cc(ccc31)-c1csc(n1)CC(NC(=O)C1CC1C)C(=O)N1CCCC(N1)C(=O)OCC(C)(C)C2",
    "subjectOfTest": "565726-208-R1-J5-PDC complex spheroids, growth inhibition",
    "viability, T/C / %": 49.2
  }
]

Input C[C@@H](NC(=O)c1ncnc(N)c1Cl)c1ncc(C(=O)Nc2cc(C(F)(F)F)c(Cl)cn2)s1 + CCn1c(-c2cc(N3CCN(C)CC3)cnc2C(C)OC)c2c3cc(ccc31)-c1csc(n1)CC(NC(=O)C1CC1C)C(=O)N1CCCC(N1)C(=O)OCC(C)(C)C2 , output reported viability, T/C.
61

Input CC(Nc1ccc2c(c1)OCCn1cc(N3C(=O)OCC3C(F)F)nc1-2)C(N)=O (stereo not given) + CCn1c(-c2cccnc2C(C)OC)c2c3cc(ccc31)N1CCOC(CC(NC(=O)C(C(C)C)N(C)C(=O)C3(F)CCN(C(=O)C#CC(C)(C)N(C)C)CC3)C(=O)N3CCCC(N3)C(=O)OCC(C)(C)C2)C1 , output reported viability, T/C.
93.7

Input CCC(CC)c1cc(NC2CCC(N)C2)n2nccc2n1 (stereo not given) + CCn1c(-c2cc(N3CCN(C)CC3)cnc2C(C)OC)c2c3cc(ccc31)-c1csc(n1)CC(NC(=O)C1CC1C)C(=O)N1CCCC(N1)C(=O)OCC(C)(C)C2 , output reported viability, T/C.
56.6

----------
- Tested on: 565726-208-R1-J5-PDC complex spheroids, growth inhibition
- methodSummary: Anticancer human tumor 565726-208-R1-J5-PDC cell line growth inhibition [RAS];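 further: spheroids exposed to compounds for seven days before readout; 100% = DMSO vehicle control viability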
- testSettings: second compound 0.0316 µM; first compound 1 µM; active compounds read low
Entries and their viability, T/C values follow.
Use % as the unit, but write only the number.

Illustrative cases are given below, each with its answer.
[
  {
    "compound": "NC1c2ccccc2OC12CCN(c1cnc3c(N4CCCc5ncccc54)n[nH]c3n1)CC2 (stereo not drawn) + C=CC(=O)N1CCN(c2nc(OCC3CCCN3C)nc3c(F)c(-c4nc(N)cc(C)c4C(F)(F)F)c(Cl)cc23)C(C)C1",
    "viability, T/C [%]": 70.8
  },
  {
    "compound": "CCN1CCN(Cc2ccc(Nc3ncc(F)c(-c4cc(F)c5nc(C)n(C(C)C)c5c4)n3)nc2)CC1 + C=CC(=O)N1CCN(c2nc(OCC3CCCN3C)nc3c(F)c(-c4nc(N)cc(C)c4C(F)(F)F)c(Cl)cc23)C(C)C1",
    "viability, T/C [%]": 103
  }
]

Input Cc1nc(N2CCC3(CC2)COC(C)C3N)c(CO)nc1Sc1ccnc(N)c1Cl (stereo not drawn) + C=CC(=O)N1CCN(c2nc(OCC3CCCN3C)nc3c(F)c(-c4nc(N)cc(C)c4C(F)(F)F)c(Cl)cc23)C(C)C1 , output reported viability, T/C.
90.5
